biological target: Serine/threonine-protein kinase Chk2 (Homo sapiens) (UniProt O96017); assay: Inhibition of CHEK2 (unknown origin) at 1 uM measured after 1 hr relative to control
Sequence (O96017 whole entry): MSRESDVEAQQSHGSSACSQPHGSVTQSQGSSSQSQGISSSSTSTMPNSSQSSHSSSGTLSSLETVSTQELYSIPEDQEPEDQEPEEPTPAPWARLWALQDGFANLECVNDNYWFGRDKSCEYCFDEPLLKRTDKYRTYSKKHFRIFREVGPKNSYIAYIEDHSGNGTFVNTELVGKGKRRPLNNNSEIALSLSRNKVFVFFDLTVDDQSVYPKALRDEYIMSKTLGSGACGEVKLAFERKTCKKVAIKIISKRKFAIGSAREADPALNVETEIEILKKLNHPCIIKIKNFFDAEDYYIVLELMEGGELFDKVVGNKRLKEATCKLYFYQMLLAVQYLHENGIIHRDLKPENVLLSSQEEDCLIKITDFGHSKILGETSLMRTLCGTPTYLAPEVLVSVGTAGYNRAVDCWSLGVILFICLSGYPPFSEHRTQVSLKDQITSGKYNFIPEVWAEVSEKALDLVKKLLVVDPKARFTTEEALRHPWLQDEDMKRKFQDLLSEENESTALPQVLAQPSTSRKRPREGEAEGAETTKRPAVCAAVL
For each record, write down the corresponding inhibition.

IN: For C=CC(=O)N1CCC2(CC1)CNC(=O)c1cc(-c3ccnc(Nc4ccccc4OC)c3)[nH]c12 , what is its reported inhibition?
OUT: 100%

IN: Which inhibition value is on record for C=CC(=O)Nc1cc(Nc2nccc(-c3cn(C)c4ccccc34)n2)c(OC)cc1N(C)CCN(C)C ?
OUT: 0%

IN: Give the measured inhibition of C=CC(=O)N1CCC2(CC1)CNC(=O)c1cc(-c3ccnc(Nc4ccccc4OC)n3)[nH]c12 .
OUT: 99%

IN: Requested field: inhibition. Item: C=CC(=O)N1CCC2(CC1)CNC(=O)c1cc(-c3ccnc(Nc4ccccc4OC(C)C)n3)[nH]c12
OUT: 100%

IN: Quick one: inhibition for C=CC(=O)N1CCC2(CC1)CNC(=O)c1cc(-c3nc(Nc4ccccc4OC)ncc3C)[nH]c12 ?
OUT: 96%

----------
Hi there, I'd appreciate the recorded pEC50 for every entry that follows.
target: Epidermal growth factor receptor (Homo sapiens, UniProt P00533); assay: Inhibition of EGF-induced phosphorylation of wild type EGFR in human NCI-H1975 cells preincubated for 120 mins followed by EGF stimulation and measured after 10 mins by ELISA
Sequence (P00533 whole entry): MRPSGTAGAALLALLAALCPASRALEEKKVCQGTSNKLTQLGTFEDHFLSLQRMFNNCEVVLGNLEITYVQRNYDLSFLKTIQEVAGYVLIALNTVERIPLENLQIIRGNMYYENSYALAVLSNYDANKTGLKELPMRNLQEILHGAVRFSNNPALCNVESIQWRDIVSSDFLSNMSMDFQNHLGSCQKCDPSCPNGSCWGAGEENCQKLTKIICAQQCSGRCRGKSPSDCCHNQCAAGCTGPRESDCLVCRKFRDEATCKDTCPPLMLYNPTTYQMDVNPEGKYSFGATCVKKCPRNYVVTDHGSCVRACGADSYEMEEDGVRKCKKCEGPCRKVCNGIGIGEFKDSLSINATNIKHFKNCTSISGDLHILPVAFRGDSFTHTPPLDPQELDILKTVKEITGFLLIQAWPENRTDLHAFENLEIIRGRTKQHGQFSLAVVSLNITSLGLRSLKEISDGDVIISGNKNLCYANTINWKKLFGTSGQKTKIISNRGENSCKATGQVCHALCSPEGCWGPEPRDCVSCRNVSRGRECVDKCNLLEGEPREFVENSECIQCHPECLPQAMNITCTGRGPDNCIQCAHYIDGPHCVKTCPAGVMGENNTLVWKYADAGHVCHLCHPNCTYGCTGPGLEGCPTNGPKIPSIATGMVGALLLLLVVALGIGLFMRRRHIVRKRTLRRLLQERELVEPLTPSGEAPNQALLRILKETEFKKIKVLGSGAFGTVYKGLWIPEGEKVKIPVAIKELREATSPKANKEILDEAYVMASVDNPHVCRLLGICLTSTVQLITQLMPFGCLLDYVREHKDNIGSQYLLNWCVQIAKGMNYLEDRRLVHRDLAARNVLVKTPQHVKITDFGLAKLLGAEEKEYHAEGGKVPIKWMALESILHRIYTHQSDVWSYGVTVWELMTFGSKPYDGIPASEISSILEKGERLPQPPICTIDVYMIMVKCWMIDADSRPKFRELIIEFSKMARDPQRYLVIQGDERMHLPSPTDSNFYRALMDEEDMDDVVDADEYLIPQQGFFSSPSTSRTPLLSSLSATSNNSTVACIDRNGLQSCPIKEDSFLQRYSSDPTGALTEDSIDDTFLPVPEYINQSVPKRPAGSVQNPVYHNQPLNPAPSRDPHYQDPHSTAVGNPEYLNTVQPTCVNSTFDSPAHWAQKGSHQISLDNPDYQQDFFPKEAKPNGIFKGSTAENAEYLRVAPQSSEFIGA
pEC50 here: minus log base 10 of the concentration, concentration in moles per litre.

IN: Fill blank: measured pEC50 of the compound C=CC(=O)N1CCC2(CC1)CNC(=O)c1cc(-c3nc(Nc4ccccc4OC)ncc3Cl)[nH]c12 is ____.
OUT: 6.56

IN: Could you tell me which pEC50 is on file for C=CC(=O)N1CCC2(CC1)CNC(=O)c1cc(-c3ccnc(Nc4ccccc4OC)n3)[nH]c12 ?
OUT: 6.51

IN: May I ask what pEC50 has been recorded for C=CC(=O)N1CCC2(CC1)CNC(=O)c1cc(-c3ccnc(Nc4ccccc4OC(C)C)n3)[nH]c12 ?
OUT: 6.25

IN: pEC50 lookup needed for C=CC(=O)N1CCC2(CC1)CNC(=O)c1cc(-c3nc(Nc4ccccc4OC)ncc3C)[nH]c12 , thanks.
OUT: 6.78

----------
assay: Oral bioavailability in mouse; type: ADME, organism-based; settings: in vivo
observable: bioavailability
Please format your answer as a value with the unit trailing.

IN: Record request: bioavailability value, item C=CC(=O)N1CCC2(CC1)CNC(=O)c1cc(-c3ccnc(Nc4ccccc4OC)n3)[nH]c12
OUT: 3.2%

IN: Query: bioavailability; subject: C=CC(=O)Nc1cc(Nc2nccc(-c3cn(C)c4ccccc34)n2)c(OC)cc1N(C)CCN(C)C
OUT: 45%

IN: Dear colleague, I am looking for the recorded bioavailability of the following compound: C=CC(=O)N1CCC2(CC1)CNC(=O)c1cc(-c3ccnc(Nc4ccccc4OC(C)C)n3)[nH]c12
OUT: 11%

IN: Which measured bioavailability value corresponds to C=CC(=O)N1CCC2(CC1)CNC(=O)c1cc(-c3nc(Nc4ccccc4OC)ncc3C)[nH]c12 ?
OUT: 87%

----------
Exercise: state measured inhibition for each of the molecules provided.
molecular target: Casein kinase I isoform gamma-2 (Homo sapiens) (UniProt P78368); assay: Inhibition of CSNK1G2 (unknown origin) at 1 uM measured after 1 hr relative to control
Sequence (P78368 whole entry, looked up, canonical isoform): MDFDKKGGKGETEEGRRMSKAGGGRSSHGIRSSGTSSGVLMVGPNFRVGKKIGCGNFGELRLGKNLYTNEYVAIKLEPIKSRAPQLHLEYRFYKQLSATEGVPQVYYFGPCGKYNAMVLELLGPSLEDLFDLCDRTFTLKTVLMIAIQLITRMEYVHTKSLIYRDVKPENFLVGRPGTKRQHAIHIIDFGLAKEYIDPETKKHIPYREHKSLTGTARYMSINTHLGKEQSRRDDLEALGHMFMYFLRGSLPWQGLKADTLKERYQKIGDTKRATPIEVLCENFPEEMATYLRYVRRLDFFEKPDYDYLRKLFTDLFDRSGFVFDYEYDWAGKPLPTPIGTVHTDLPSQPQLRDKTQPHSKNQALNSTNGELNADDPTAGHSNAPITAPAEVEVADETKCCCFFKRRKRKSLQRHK
Lab book: enter the figure in %, no units written.

IN: // lookup inhibition for C=CC(=O)N1CCC2(CC1)CNC(=O)c1cc(-c3ccnc(Nc4ccccc4OC)c3)[nH]c12
OUT: 79

IN: Which inhibition is listed for C=CC(=O)N1CCC2(CC1)CNC(=O)c1cc(-c3ccnc(Nc4ccccc4OC(C)C)n3)[nH]c12 ?
OUT: 88

IN: For the molecule C=CC(=O)Nc1cc(Nc2nccc(-c3cn(C)c4ccccc34)n2)c(OC)cc1N(C)CCN(C)C , what inhibition is on record?
OUT: 5

IN: I would be grateful if you could share the reported inhibition for C=CC(=O)N1CCC2(CC1)CNC(=O)c1cc(-c3nc(Nc4ccccc4OC)ncc3C)[nH]c12 .
OUT: 92

IN: Look up inhibition: C=CC(=O)N1CCC2(CC1)CNC(=O)c1cc(-c3ccnc(Nc4ccccc4OC)n3)[nH]c12
OUT: 81

Every entry's value here was drawn from ChEMBL document CHEMBL5029169.
